Entry source: patent US20200270309A1

# Test system: choroidal neovascularization
# procedureText: Choroidal neovascularization in rats (laser photocoagulation, FFA)
# Type: in vivo
# experimentalSetup: day 3 after administration, total light spot number was 297, 0.05 μM in the vitreous chamber once a day for 1 week, BN rats
# Experimental: 6-8 weeks male BN rats were fully anesthetized by intraperitoneal injection of 846 compound anesthetic with a concentration of 0.5 mL/kg. Compound tropicamide eye drops were used once 5 min before laser photocoagulation to fully dilate the pupils of both eyes. The animals were fixed and subjected to krypton laser photocoagulation equidistantly around an optic disc with the aid of a −53.00D corneal contact lens at a distance of 2PD from the optic disc. […]
Peptide text beside a SMILES is read from it. * marks the point of attachment. X65 = O=C1C=CC(=O)N1c1cccc(CCCCCCCCCCCCC(=O)*)c1; X58 = O=C1C=CC(=O)N1c1cccc(CCCCCCCCCCCC(=O)*)c1; X84 = O=C1C=CC(=O)N1c1ccccc1CCCCCCCCCCCCC(=O)*; X59 = O=C1C=CC(=O)N1c1cccc(CCCCCCCCC(=O)*)c1; X72 = O=C1C=CC(=O)N1c1ccccc1CCCCCCCCCCC(=O)*; X54 = O=C1C=CC(=O)N1c1cccc(CCCCCCC(=O)*)c1; X55 = O=C1C=CC(=O)N1c1ccccc1CCCCCCCCC(=O)*; X52 = O=C1C=CC(=O)N1c1ccccc1CCCCCCCC(=O)*; X71 = O=C1C=CC(=O)N1c1cccc(CCCCCC(=O)*)c1; X46 = O=C1C=CC(=O)N1c1cccc(CCCCC(=O)*)c1; X63 = O=C1C=CC(=O)N1c1ccccc1CCCCCCC(=O)*
endpoint: Leakage Light spot number
Answer with the value's number alone.

Quick check: Leakage Light spot number of C[C@H](NC(=O)CNC(=O)[C@H](CCCNC(=N)N)NC(=O)CCCCCCCCCCc1ccccc1N1C(=O)C=CC1=O)C(=O)N[C@@H](CC(=O)O)C(=O)N[C@@H](CCCNC(=N)N)C(=O)N[C@@H](C)C(=O)NCC(=O)NCC(=O)NCC(=O)NCC(=O)N[C@@H](CCCNC(=N)N)C(=O)NCC(=O)N[C@@H](CC(=O)O)C(=O)O [X22] (X72-RGADRAGGGGRGD-OH) ? 160

Same lookup for C[C@H](NC(=O)CNC(=O)[C@H](CCCNC(=N)N)NC(=O)CCCCCCCCCCCCc1cccc(N2C(=O)C=CC2=O)c1)C(=O)N[C@@H](CC(=O)O)C(=O)N[C@@H](CCCNC(=N)N)C(=O)N[C@@H](C)C(=O)NCC(=O)NCC(=O)NCC(=O)NCC(=O)N[C@@H](CCCNC(=N)N)C(=O)NCC(=O)N[C@@H](CC(=O)O)C(=O)O [X36] (X65-RGADRAGGGGRGD-OH) , please. 150

Now try C[C@H](NC(=O)CNC(=O)[C@H](CCCNC(=N)N)NC(=O)CCCCCCc1cccc(N2C(=O)C=CC2=O)c1)C(=O)N[C@@H](CC(=O)O)C(=O)N[C@@H](CCCNC(=N)N)C(=O)N[C@@H](C)C(=O)NCC(=O)NCC(=O)NCC(=O)NCC(=O)N[C@@H](CCCNC(=N)N)C(=O)NCC(=O)N[C@@H](CC(=O)O)C(=O)O [X30] (X54-RGADRAGGGGRGD-OH) . 154

Let us now turn to C[C@H](NC(=O)CNC(=O)[C@H](CCCNC(=N)N)NC(=O)CCCCCc1cccc(N2C(=O)C=CC2=O)c1)C(=O)N[C@@H](CC(=O)O)C(=O)N[C@@H](CCCNC(=N)N)C(=O)N[C@@H](C)C(=O)NCC(=O)NCC(=O)NCC(=O)NCC(=O)N[C@@H](CCCNC(=N)N)C(=O)NCC(=O)N[C@@H](CC(=O)O)C(=O)O [X29] (X71-RGADRAGGGGRGD-OH) 161

Another compound to check: C[C@H](NC(=O)CNC(=O)[C@H](CCCNC(=N)N)NC(=O)CCCCCCCCc1ccccc1N1C(=O)C=CC1=O)C(=O)N[C@@H](CC(=O)O)C(=O)N[C@@H](CCCNC(=N)N)C(=O)N[C@@H](C)C(=O)NCC(=O)NCC(=O)NCC(=O)NCC(=O)N[C@@H](CCCNC(=N)N)C(=O)NCC(=O)N[C@@H](CC(=O)O)C(=O)O [X20] (X55-RGADRAGGGGRGD-OH) 156

Try this compound too: C[C@H](NC(=O)CNC(=O)[C@H](CCCNC(=N)N)NC(=O)CCCCCCCCCCCCc1ccccc1N1C(=O)C=CC1=O)C(=O)N[C@@H](CC(=O)O)C(=O)N[C@@H](CCCNC(=N)N)C(=O)N[C@@H](C)C(=O)NCC(=O)NCC(=O)NCC(=O)NCC(=O)N[C@@H](CCCNC(=N)N)C(=O)NCC(=O)N[C@@H](CC(=O)O)C(=O)O [X24] (X84-RGADRAGGGGRGD-OH) 161

Subsequent entry: C[C@H](NC(=O)CNC(=O)[C@H](CCCNC(=N)N)NC(=O)CCCCCCc1ccccc1N1C(=O)C=CC1=O)C(=O)N[C@@H](CC(=O)O)C(=O)N[C@@H](CCCNC(=N)N)C(=O)N[C@@H](C)C(=O)NCC(=O)NCC(=O)NCC(=O)NCC(=O)N[C@@H](CCCNC(=N)N)C(=O)NCC(=O)N[C@@H](CC(=O)O)C(=O)O [X18] (X63-RGADRAGGGGRGD-OH) 160

Do the same for C[C@H](NC(=O)CNC(=O)[C@H](CCCNC(=N)N)NC(=O)CCCCCCCCCCCc1cccc(N2C(=O)C=CC2=O)c1)C(=O)N[C@@H](CC(=O)O)C(=O)N[C@@H](CCCNC(=N)N)C(=O)N[C@@H](C)C(=O)NCC(=O)NCC(=O)NCC(=O)NCC(=O)N[C@@H](CCCNC(=N)N)C(=O)NCC(=O)N[C@@H](CC(=O)O)C(=O)O [X35] (X58-RGADRAGGGGRGD-OH) please 155

Also C[C@H](NC(=O)CNC(=O)[C@H](CCCNC(=N)N)NC(=O)CCCCc1cccc(N2C(=O)C=CC2=O)c1)C(=O)N[C@@H](CC(=O)O)C(=O)N[C@@H](CCCNC(=N)N)C(=O)N[C@@H](C)C(=O)NCC(=O)NCC(=O)NCC(=O)NCC(=O)N[C@@H](CCCNC(=N)N)C(=O)NCC(=O)N[C@@H](CC(=O)O)C(=O)O [X28] (X46-RGADRAGGGGRGD-OH) , if possible. 149

Query C[C@H](NC(=O)CNC(=O)[C@H](CCCNC(=N)N)NC(=O)CCCCCCCc1ccccc1N1C(=O)C=CC1=O)C(=O)N[C@@H](CC(=O)O)C(=O)N[C@@H](CCCNC(=N)N)C(=O)N[C@@H](C)C(=O)NCC(=O)NCC(=O)NCC(=O)NCC(=O)N[C@@H](CCCNC(=N)N)C(=O)NCC(=O)N[C@@H](CC(=O)O)C(=O)O [X19] (X52-RGADRAGGGGRGD-OH) next 155

Same question, C[C@H](NC(=O)CNC(=O)[C@H](CCCNC(=N)N)NC(=O)CCCCCCCCc1cccc(N2C(=O)C=CC2=O)c1)C(=O)N[C@@H](CC(=O)O)C(=O)N[C@@H](CCCNC(=N)N)C(=O)N[C@@H](C)C(=O)NCC(=O)NCC(=O)NCC(=O)NCC(=O)N[C@@H](CCCNC(=N)N)C(=O)NCC(=O)N[C@@H](CC(=O)O)C(=O)O [X32] (X59-RGADRAGGGGRGD-OH) this time 161
